# Target Or System: human recombinant 5-HT2C receptor (Homo sapiens, UniProt P28335)
# Construct: expressed in transfected cells
# Sequence (P28335 33-458): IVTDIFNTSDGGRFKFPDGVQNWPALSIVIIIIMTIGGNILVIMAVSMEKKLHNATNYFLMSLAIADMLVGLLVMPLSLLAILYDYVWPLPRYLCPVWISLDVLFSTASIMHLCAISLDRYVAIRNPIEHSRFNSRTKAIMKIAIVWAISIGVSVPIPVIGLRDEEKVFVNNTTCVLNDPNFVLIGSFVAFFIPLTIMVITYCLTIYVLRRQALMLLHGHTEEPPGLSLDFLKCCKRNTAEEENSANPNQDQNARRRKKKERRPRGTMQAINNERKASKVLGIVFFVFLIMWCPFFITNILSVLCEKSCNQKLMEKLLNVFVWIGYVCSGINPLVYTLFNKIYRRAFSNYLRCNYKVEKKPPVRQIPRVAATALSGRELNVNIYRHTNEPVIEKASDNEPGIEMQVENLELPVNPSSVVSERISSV
# Method Summary: [3H]Mesulergine binding to serotonin 5-HT2C receptor
# Condition: read-out: Affinity for 5-HT2C receptor (IC50)
Measurement Type: IC50 (nM)
Please reply with the bare figure in nM and do not write the unit itself.

For record COc1ccc(Nc2nc(N3CCN(c4ccc(F)cc4)CC3)nc3c2cnn3C)cc1 [Comp. 34] the listed IC50 is 1180

Data credit: patent US8232279B2
